EXPERIMENT_SUMMARY: Antiproliferative activity against human PC3 cells after 72 hrs by Celltiter-Glo luminescent cell viability assay
Assay type: functional, cell-based
CONDITION_SET: PC-3, 72 h
Non-standard residues stand in square brackets, D forms with d. Residues, ends and D or L forms follow the SMILES beside them. Ac6c = NC1(C(=O)O)CCCCC1; Ac5c = NC1(C(=O)O)CCCC1
REPORTED_PROPERTY: IC50

// query Form field: reported IC50 of CC(=O)NCC(=O)N[C@@H](Cc1ccccc1)C(=O)NC1(C(=O)NCC(=O)NC2(C(=O)N[C@@H](CCCCN)C(=O)NC3(C(=O)NCC(=O)NC4(C(=O)N[C@@H](Cc5ccccc5)C(=O)NC5(C(=O)NCC(=O)NC6(C(=O)NCC(=O)N[C@@H](CCCCN)C(=O)NC7(C(=O)N[C@@H](CCCCN)C(=O)N[C@@H](CCCCN)C(=O)N[C@@H](CCCCN)C(=O)N[C@@H](CCCCN)C(N)=O)CCCC7)CCCCC6)CCCC5)CCCCC4)CCCC3)CCCCC2)CCCC1 (Ac-GF[Ac5c]G[Ac6c]K[Ac5c]G[Ac6c]F[Ac5c]G[Ac6c]GK[Ac5c]KKKK-NH2)
// result > 7.5 µM

// query What IC50 value was documented for this compound, CC(=O)NCC(=O)N[C@H](Cc1ccccc1)C(=O)NC1(C(=O)NCC(=O)N2C(C(=O)N[C@@H](CCCCN)C(=O)NC3(C(=O)NCC(=O)N4C(C(=O)N[C@@H](Cc5ccccc5)C(=O)NC5(C(=O)NCC(=O)N6C(C(=O)NCC(=O)N[C@@H](CCCCN)C(=O)N7C(C(=O)N[C@H](CCCCN)C(=O)N[C@H](CCCCN)C(=O)N[C@H](CCCCN)C(=O)N[C@H](CCCCN)C(N)=O)CC8CCCCC87)CC7CCCCC76)CCCCC5)CC5CCCCC54)CCCCC3)CC3CCCCC32)CCCCC1 (stereo in doubt) ?
// result > 7.5 µM
